# System: HIV-1 clinical isolate 2
# test-name: PI sensitivity of PI-resistant clinical isolate 2 in PHA-PBMC, p24
# Assay type: cell-based
# measurement-setup: Human immunodeficiency virus 1; isolate 2: L10I, I15V, K20R, N36I, H46L, I54V, K55R, I62V, L63P, K70D, V82A, L89N; PHA-PBMC, p24
measured-quantity: pIC50
# pIC50 is unitless: minus log10 of the molar concentration; print number only

Request: Recorded pIC50 for Cc1c(O)cccc1C(=O)N[C@@H](CSc1ccccc1)[C@H](O)CN1C[C@H]2CCCC[C@H]2C[C@H]1C(=O)NC(C)(C)C , please?
Result: 6.48

Next:
Request: Recorded pIC50 for CC(C)CN(C[C@@H](O)[C@H](Cc1ccccc1)NC(=O)O[C@H]1CCOC1)S(=O)(=O)c1ccc(N)cc1 , please?
Result: 6.55

Request: Recorded pIC50 for CC(C)(C)NC(=O)[C@@H]1C[C@@H]2CCCC[C@@H]2CN1C[C@@H](O)[C@H](Cc1ccccc1)NC(=O)[C@H](CC(N)=O)NC(=O)c1ccc2ccccc2n1 , please?
Result: 7.43

Request: Recorded pIC50 for CC(C)(C)NC(=O)[C@@H]1CN(Cc2cccnc2)CCN1C[C@@H](O)C[C@@H](Cc1ccccc1)C(=O)N[C@H]1c2ccccc2C[C@H]1O , please?
Result: 6.31

----------
# System: HIV-1APV-P30
# test-name: PI sensitivity of APV-selected HIV-1APV-P30 in MT-2 cells, MTT assay
# Format: cell-based
# measurement-setup: HIV-1APV-P30 (L10F, V32I, M46I, I54M, A71V, I84V), MT-2 cells, MTT assay, day 7; read-out: IC50
measured-quantity: pIC50
# pIC50 is unitless: minus log10 of the molar concentration; print number only

Request: Lab request: please report pIC50 under test system HIV-1APV-P30 for COc1ccc(S(=O)(=O)N(CC(C)C)C[C@@H](O)[C@H](Cc2ccccc2)NC(=O)O[C@H]2CO[C@H]3OCC[C@H]32)cc1
Result: 7.54

----------
# System: HIV-1 clinical isolate 2
# test-name: PI sensitivity of PI-resistant clinical isolate 2 in PHA-PBMC, p24
# Format: cell-based
# measurement-setup: isolate 2: L10I, I15V, K20R, N36I, H46L, I54V, K55R, I62V, L63P, K70D, V82A, L89N; PHA-PBMC, p24
measured-quantity: IC50
Give the value; after it, write the unit.

Request: Recorded IC50 for COc1ccc(S(=O)(=O)N(CC(C)C)C[C@@H](O)[C@H](Cc2ccccc2)NC(=O)O[C@H]2CO[C@H]3OCC[C@H]32)cc1 [UIC-94003] , please?
Result: 1.3 nM

----------
Quick reference for pIC50 among some molecules
# Test system: HIV-1 clinical isolate 3
# test-name: PI sensitivity of PI-resistant clinical isolate 3 in PHA-PBMC, p24
# Type: cell-based
# measurement-setup: Human immunodeficiency virus 1; isolate 3: L10I, I15V, E35D, N37E, K45R, I54V, L63P, A71V, V82I, L90N, I93L, C95F; PHA-PBMC, p24
# pIC50 is unitless: minus log10 of the molar concentration; print number only

Request: Recorded pIC50 for CC(C)CN(C[C@@H](O)[C@H](Cc1ccccc1)NC(=O)O[C@H]1CCOC1)S(=O)(=O)c1ccc(N)cc1 [APV, Amprenavir] , please?
Result: 6.59

Request: Recorded pIC50 for CC(C)(C)NC(=O)[C@@H]1CN(Cc2cccnc2)CCN1C[C@@H](O)C[C@@H](Cc1ccccc1)C(=O)N[C@H]1c2ccccc2C[C@H]1O [IDV, Indinavir] , please?
Result: 6.31

Then this molecule:
Request: Recorded pIC50 for CC(C)(C)NC(=O)[C@@H]1C[C@@H]2CCCC[C@@H]2CN1C[C@@H](O)[C@H](Cc1ccccc1)NC(=O)[C@H](CC(N)=O)NC(=O)c1ccc2ccccc2n1 [SQV, Saquinavir] , please?
Result: 7.44
